Biological target: PPARγ LBD R288H (Homo sapiens, UniProt P37231, R316H)
Construct: PPARγ LBD (residues 195–477 in PPARγ1 numbering) was cloned into the expression vector pET-28b(+)
Sequence (P37231 195-477 isoform P37231-2 R288H): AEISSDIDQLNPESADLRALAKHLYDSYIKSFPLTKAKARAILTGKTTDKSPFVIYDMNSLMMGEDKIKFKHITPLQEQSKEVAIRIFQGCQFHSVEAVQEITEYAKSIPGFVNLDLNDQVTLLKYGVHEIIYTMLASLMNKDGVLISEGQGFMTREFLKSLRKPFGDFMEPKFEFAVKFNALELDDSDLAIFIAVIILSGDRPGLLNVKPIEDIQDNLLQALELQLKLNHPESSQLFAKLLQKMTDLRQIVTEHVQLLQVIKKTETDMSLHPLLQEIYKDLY
Assay: ITC binding of endogenous ligands to PPARγ LBD R288H
Conditions: PBS pH 7.2, 25 °C, ligand 0.9 mM
pKd: −log10 of the molar value.
outcome_measure: pKd

[[record]]
molecule = "CCCCC[C@H](O)/C=C/C=C\\CCCCCCCC(=O)O [13S-HODE, 13S-hydroxy-9Z,11E-octadecadienoic acid]"
outcome_measure = "pKd"
sign = "="
quantitative_result = 4.17

[[record]]
molecule = "CCCCCC=CC=C1C(=O)C=C[C@@H]1CC=CCCCC(=O)O [15d-PGJ2, 15-deoxy-∆^12,14-prostaglandin J2]"
outcome_measure = "pKd"
sign = "<"
quantitative_result = 3.70

